From: patent US10987349B2

molecular target: BRD4 BD2 (Homo sapiens); construct: BRD2 BD2, BRD3 BD2 and BRD4 BD2 (Cisbio); purchased Cisbio; experiment: Binding assay, BRD4 BD2 to acetylated histone H4 Peptide-Biotin (EPIgeneous Binding Domain Kit B); conditions: test compound at 300 nmol/L; read-out: Binding inhibition percentage BRD4 BD2
measurement-name: inhibition at 0.3 µM (%)

[
  {
    "compound": "CCn1c(=O)cc(N2CCOCC2)c2cc(-n3c(-c4ccccc4)cn(CCO)c3=O)ccc21 [Example 262]",
    "measurement-name": "inhibition at 0.3 µM",
    "observed": 88
  },
  {
    "compound": "CCn1c(=O)cc(C2CC2)c2cc(-c3nc(C)[nH]c3-c3ccccc3)ccc21 [Example 283]",
    "measurement-name": "inhibition at 0.3 µM",
    "observed": 87
  },
  {
    "compound": "CCn1c(=O)cc(C2CCN(C)CC2)c2cc(C(=O)N(C)c3ccc(C)cc3)ccc21 [Example 14]",
    "measurement-name": "inhibition at 0.3 µM",
    "observed": 82
  },
  {
    "compound": "CCn1c(=O)cc(N2CCOCC2)c2cc(-n3c(-c4ccc(C)cc4)cn(C)c3=O)ccc21 [Example 273]",
    "measurement-name": "inhibition at 0.3 µM",
    "observed": 89
  },
  {
    "compound": "CCn1c(=O)cc(N2CCOCC2)c2cc(-n3c(-c4ccc(Cl)cc4)c[nH]c3=O)ccc21 [Example 245]",
    "measurement-name": "inhibition at 0.3 µM",
    "observed": 88
  },
  {
    "compound": "CCn1c(=O)cc(C2CC2)c2cc(-n3c(-c4ccc(Cl)cc4)cn(C)c3=O)ccc21 [Example 269]",
    "measurement-name": "inhibition at 0.3 µM",
    "observed": 87
  },
  {
    "compound": "CCn1c(=O)cc(C2CC2)c2cc(-c3nccnc3-c3ccccc3)ccc21 [Example 284]",
    "measurement-name": "inhibition at 0.3 µM",
    "observed": 89
  },
  {
    "compound": "CCn1c(=O)cc(C)c2cc(-c3cccnc3-c3ccccc3)ccc21 [Example 291]",
    "measurement-name": "inhibition at 0.3 µM",
    "observed": 84
  },
  {
    "compound": "CCn1c(=O)cc(N2CCOCC2)c2cc(-n3c(-c4ccc(Cl)cc4)cn(C)c3=O)ccc21 [Example 246]",
    "measurement-name": "inhibition at 0.3 µM",
    "observed": 84
  },
  {
    "compound": "CCn1c(=O)cc(C2CCN(CCO)CC2)c2cc(C(=O)N(C)c3ccc4c(c3)CCCCC4)ccc21 [Example 191]",
    "measurement-name": "inhibition at 0.3 µM",
    "observed": 88
  },
  {
    "compound": "CCn1c(=O)cc(C2CC2)c2cc(N(C)C(=O)c3ccccc3)ccc21 [Example 2]",
    "measurement-name": "inhibition at 0.3 µM",
    "observed": 86
  },
  {
    "compound": "CCn1c(=O)cc(C2CCC(O)CC2)c2cc(C(=O)N(C)c3ccc(Cl)cc3)ccc21 (stereo not drawn) [Example 286]",
    "measurement-name": "inhibition at 0.3 µM",
    "observed": 89
  },
  {
    "compound": "CCn1c(=O)cc(C2CC2)c2cc(-c3nc(C)nn3-c3ccccc3)ccc21 [Example 252]",
    "measurement-name": "inhibition at 0.3 µM",
    "observed": 88
  },
  {
    "compound": "CCn1cc(-c2ccccc2)n(-c2ccc3c(c2)c(N2CCOCC2)cc(=O)n3CC)c1=O [Example 266]",
    "measurement-name": "inhibition at 0.3 µM",
    "observed": 88
  },
  {
    "compound": "CCn1c(=O)cc(N2CCOCC2)c2cc(-n3c(-c4ccc(C(F)(F)F)cc4)c[nH]c3=O)ccc21 [Example 272]",
    "measurement-name": "inhibition at 0.3 µM",
    "observed": 90
  }
]
